TESTED_TARGET: BRD1 (Homo sapiens)
Sequence (O95696 1-1058): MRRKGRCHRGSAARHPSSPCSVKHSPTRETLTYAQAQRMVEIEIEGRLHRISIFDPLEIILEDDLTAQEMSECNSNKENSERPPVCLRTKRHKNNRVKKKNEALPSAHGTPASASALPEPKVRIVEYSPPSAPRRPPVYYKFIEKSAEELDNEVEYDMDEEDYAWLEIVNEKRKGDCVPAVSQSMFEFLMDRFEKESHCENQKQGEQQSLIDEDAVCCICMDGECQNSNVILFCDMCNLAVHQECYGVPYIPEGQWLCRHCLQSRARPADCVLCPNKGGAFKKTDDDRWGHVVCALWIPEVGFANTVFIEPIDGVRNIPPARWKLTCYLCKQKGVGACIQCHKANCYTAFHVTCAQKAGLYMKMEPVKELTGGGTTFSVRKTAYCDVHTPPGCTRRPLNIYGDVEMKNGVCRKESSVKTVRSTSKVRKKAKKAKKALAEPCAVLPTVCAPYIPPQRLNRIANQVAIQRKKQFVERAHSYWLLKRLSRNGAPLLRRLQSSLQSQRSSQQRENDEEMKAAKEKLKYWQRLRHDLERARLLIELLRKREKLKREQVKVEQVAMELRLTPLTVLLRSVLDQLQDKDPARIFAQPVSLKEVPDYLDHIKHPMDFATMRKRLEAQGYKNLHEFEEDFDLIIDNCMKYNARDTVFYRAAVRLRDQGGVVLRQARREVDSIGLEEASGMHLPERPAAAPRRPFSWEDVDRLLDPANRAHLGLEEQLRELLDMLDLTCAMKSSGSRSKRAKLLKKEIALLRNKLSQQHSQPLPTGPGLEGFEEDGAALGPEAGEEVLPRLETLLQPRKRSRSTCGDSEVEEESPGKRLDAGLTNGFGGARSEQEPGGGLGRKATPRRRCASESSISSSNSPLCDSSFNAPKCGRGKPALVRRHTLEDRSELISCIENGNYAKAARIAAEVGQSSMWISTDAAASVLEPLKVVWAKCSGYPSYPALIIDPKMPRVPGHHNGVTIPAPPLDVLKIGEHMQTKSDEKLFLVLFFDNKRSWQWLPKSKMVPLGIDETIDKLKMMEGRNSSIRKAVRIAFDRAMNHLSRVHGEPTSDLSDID
MEASURE: IC50 (µM)
The reply should be a number in µM, with the unit left off.

Query string: Supply recorded IC50 for `CCc1cc2cc(NS(=O)(=O)c3ccc(F)c(C)c3)ccc2[nH]c1=O` here.
Result string: 55.6

---

TESTED_TARGET: BRD4 (Homo sapiens, UniProt O60885)
MEASUREMENT_DESCRIPTION: BRD TR-FRET assay, BRD4
Type: binding
TEST_PARAMETERS: value of the text
MEASURE: IC50 (µM)
The reply should be a number in µM, with the unit left off.

Query string: Supply recorded IC50 for `CCc1cc2cc(NS(=O)(=O)c3ccc(F)c(C)c3)ccc2[nH]c1=O` here.
Result string: 1.2

Query string: Supply recorded IC50 for `Cc1cc(S(=O)(=O)Nc2ccc3[nH]c(=O)c4c(c3c2)CCCC4)ccc1F` here.
Result string: 3.5

---

TESTED_TARGET: BRD4 BD1 (Homo sapiens)
MEASUREMENT_DESCRIPTION: BRD TR-FRET assay, BRD4 BD1
MEASURE: IC50 (nM)
The reply should be a number in nM, with the unit left off.

Query string: State IC50 on BRD4 BD1 (Homo sapiens). Entry: `CCc1cc2cc(NS(=O)(=O)c3ccc(F)c(C)c3)ccc2[nH]c1=O`
Result string: 204

---

Test system: L02 (normal human liver cell)
MEASUREMENT_DESCRIPTION: Cytotoxicity against non-tumor cells, L02
Format: cell-based
TEST_PARAMETERS: 96 h, 4-day treatment
MEASURE: IC50 (µM)
The reply should be a number in µM, with the unit left off.

Query string: State IC50 on L02 (normal human liver cell). Entry: `CCc1cc2cc(NS(=O)(=O)c3ccc(F)c(C)c3)ccc2[nH]c1=O`
Result string: 26.3

---

TESTED_TARGET: BRD4 BD2 (Homo sapiens, UniProt O60885)
MEASUREMENT_DESCRIPTION: BRD TR-FRET assay, BRD4 BD2
MEASURE: IC50

Query string: Supply recorded IC50 for `CCc1cc2cc(NS(=O)(=O)c3ccc(F)c(C)c3)ccc2[nH]c1=O` here.
Result string: 0.801 µM

---

MEASURE: IC50 (µM)
The reply should be a number in µM, with the unit left off.

Query string: State IC50 on BRD3 (Homo sapiens, UniProt Q15059). Entry: `CCc1cc2cc(NS(=O)(=O)c3ccc(F)c(C)c3)ccc2[nH]c1=O`
Sequence (Q15059 whole entry): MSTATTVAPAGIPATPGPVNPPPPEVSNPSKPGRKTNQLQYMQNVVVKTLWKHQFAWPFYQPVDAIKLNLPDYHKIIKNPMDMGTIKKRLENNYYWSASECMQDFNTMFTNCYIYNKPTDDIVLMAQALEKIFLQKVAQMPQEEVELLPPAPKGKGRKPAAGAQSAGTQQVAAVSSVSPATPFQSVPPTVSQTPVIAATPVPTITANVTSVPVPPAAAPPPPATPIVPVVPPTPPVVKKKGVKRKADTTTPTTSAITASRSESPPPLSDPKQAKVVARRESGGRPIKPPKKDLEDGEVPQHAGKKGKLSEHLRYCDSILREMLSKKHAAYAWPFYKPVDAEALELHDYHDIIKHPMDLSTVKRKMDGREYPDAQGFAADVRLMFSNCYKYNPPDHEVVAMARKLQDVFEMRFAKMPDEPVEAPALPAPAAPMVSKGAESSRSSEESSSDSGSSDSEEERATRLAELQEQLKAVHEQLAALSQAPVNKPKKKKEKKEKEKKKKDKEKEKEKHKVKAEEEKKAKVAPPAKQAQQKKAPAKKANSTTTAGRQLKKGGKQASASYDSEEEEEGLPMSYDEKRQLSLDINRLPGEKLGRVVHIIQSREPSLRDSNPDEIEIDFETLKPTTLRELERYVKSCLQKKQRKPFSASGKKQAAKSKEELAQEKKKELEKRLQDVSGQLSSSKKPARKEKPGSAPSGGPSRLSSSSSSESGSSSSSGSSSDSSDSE
Result string: 4.79

---

TESTED_TARGET: PARP1 (Homo sapiens)
Sequence (P09874 whole entry): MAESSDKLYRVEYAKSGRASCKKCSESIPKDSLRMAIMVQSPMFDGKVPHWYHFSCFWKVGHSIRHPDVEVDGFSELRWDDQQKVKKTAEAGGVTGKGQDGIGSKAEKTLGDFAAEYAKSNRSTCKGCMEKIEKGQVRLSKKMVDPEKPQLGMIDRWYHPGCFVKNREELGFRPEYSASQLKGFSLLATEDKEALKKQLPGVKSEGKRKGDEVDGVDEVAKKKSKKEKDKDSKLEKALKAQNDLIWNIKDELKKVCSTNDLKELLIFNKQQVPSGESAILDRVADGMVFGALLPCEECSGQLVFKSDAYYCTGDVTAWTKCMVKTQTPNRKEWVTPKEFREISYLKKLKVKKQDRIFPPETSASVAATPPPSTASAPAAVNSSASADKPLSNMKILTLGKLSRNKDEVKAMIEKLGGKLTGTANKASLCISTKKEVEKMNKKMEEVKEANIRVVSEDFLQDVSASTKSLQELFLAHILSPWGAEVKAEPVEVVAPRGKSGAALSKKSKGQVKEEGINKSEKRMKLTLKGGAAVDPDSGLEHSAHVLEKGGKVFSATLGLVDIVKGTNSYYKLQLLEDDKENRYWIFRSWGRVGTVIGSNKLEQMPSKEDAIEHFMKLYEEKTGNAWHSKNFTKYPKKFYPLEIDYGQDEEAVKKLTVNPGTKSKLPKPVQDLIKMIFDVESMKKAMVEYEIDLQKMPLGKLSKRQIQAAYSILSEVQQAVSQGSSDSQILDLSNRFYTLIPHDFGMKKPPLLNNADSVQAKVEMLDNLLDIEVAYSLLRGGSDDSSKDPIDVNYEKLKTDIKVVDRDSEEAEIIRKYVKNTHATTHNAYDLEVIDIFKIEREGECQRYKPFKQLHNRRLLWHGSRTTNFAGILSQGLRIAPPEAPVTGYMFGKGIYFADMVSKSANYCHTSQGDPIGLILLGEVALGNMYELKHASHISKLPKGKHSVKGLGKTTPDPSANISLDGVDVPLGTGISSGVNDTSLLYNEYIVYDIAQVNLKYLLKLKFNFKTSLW
MEASUREMENT_DESCRIPTION: In vitro PARP1 enzymatic activity (ELISA, biotinylated NAD+, luminescence)
Type: biochemical
MEASURE: pIC50
Note on units: pIC50 is unitless, being -log10 of a concentration expressed in mol/L.

Query string: State pIC50 on PARP1 (Homo sapiens). Entry: CCc1cc2cc(NS(=O)(=O)c3ccc(F)c(C)c3)ccc2[nH]c1=O [HF4]
Result string: 5.69

Query string: State pIC50 on PARP1 (Homo sapiens). Entry: CCc1cc2cc(NC(=O)CN(C)C)ccc2[nH]c1=O [HF5]
Result string: 6.13

Query string: State pIC50 on PARP1 (Homo sapiens). Entry: CN(C)CC(=O)Nc1ccc2[nH]c(=O)c3c(c2c1)CCCC3 [HF3]
Result string: 7.80

Query string: State pIC50 on PARP1 (Homo sapiens). Entry: Cc1cc(S(=O)(=O)Nc2ccc3[nH]c(=O)c4c(c3c2)CCCC4)ccc1F [HF1]
Result string: 7.03

---

Test system: MDA-MB-436 cells
MEASUREMENT_DESCRIPTION: Cell viability (MTT), MDA-MB-436
Assay type: cell-based
TEST_PARAMETERS: Homo sapiens, MDA-MB-436, 96 h; 4-day treatment, BRCA mutant
MEASURE: pIC50
Note on units: pIC50 is unitless, being -log10 of a concentration expressed in mol/L.

Query string: State pIC50 on MDA-MB-436 cells. Entry: O=C(c1cc(Cc2n[nH]c(=O)c3ccccc23)ccc1F)N1CCN(C(=O)C2CC2)CC1 [Olaparib, olaparib, reference compound]
Result string: 5.66

Query string: State pIC50 on MDA-MB-436 cells. Entry: CCc1cc2cc(NS(=O)(=O)c3ccc(F)c(C)c3)ccc2[nH]c1=O [HF4]
Result string: 5.31

Query string: State pIC50 on MDA-MB-436 cells. Entry: Cc1sc2c(c1C)C(c1ccc(Cl)cc1)=N[C@@H](CC(=O)OC(C)(C)C)c1nnc(C)n1-2 [JQ1, reference compound]
Result string: 5.33

---

TESTED_TARGET: BRD4 (Homo sapiens, UniProt O60885)
MEASUREMENT_DESCRIPTION: BRD TR-FRET assay, BRD4
Format: binding
Hi! Could you tag entries with IC50 below 2 µM as True, and those at or above as False? Much appreciated.

Query string: Lab log: compare recorded IC50 with 2 µM; is it strictly lower for CCc1cc2cc(NS(=O)(=O)c3ccc(F)c(C)c3)ccc2[nH]c1=O [HF4] ?
Result string: True

Query string: Lab log: compare recorded IC50 with 2 µM; is it strictly lower for CN(C)CC(=O)Nc1ccc2[nH]c(=O)c3ccccc3c2c1 [PJ34, reference compound] ?
Result string: False

Query string: Lab log: compare recorded IC50 with 2 µM; is it strictly lower for Cc1cc(S(=O)(=O)Nc2ccc3[nH]c(=O)c4c(c3c2)CCCC4)ccc1F [HF1] ?
Result string: False

Query string: Lab log: compare recorded IC50 with 2 µM; is it strictly lower for CN(C)CC(=O)Nc1ccc2[nH]c(=O)c3c(c2c1)CCCC3 [HF3] ?
Result string: False

Query string: Lab log: compare recorded IC50 with 2 µM; is it strictly lower for CCc1cc2cc(NC(=O)CN(C)C)ccc2[nH]c1=O [HF5] ?
Result string: False

---

Kindly supply the reported pIC50 values for the records listed here.
System: MCF-7 cells
MEASUREMENT_DESCRIPTION: Cell viability (MTT), MCF-7
Type: cell-based
TEST_PARAMETERS: Homo sapiens, MCF7, 96 h; 4-day treatment, wild-type BRCA
Note on units: pIC50 is unitless, being -log10 of a concentration expressed in mol/L.

Query string: Supply recorded pIC50 for Cc1sc2c(c1C)C(c1ccc(Cl)cc1)=N[C@@H](CC(=O)OC(C)(C)C)c1nnc(C)n1-2 [JQ1, reference compound] here.
Result string: 6.05

Query string: Supply recorded pIC50 for `CCc1cc2cc(NS(=O)(=O)c3ccc(F)c(C)c3)ccc2[nH]c1=O` here.
Result string: 5.68

Query string: Supply recorded pIC50 for `Cc1cc(S(=O)(=O)Nc2ccc3[nH]c(=O)c4c(c3c2)CCCC4)ccc1F` here.
Result string: 4.94

Query string: Supply recorded pIC50 for O=C(c1cc(Cc2n[nH]c(=O)c3ccccc23)ccc1F)N1CCN(C(=O)C2CC2)CC1 [Olaparib, olaparib, reference compound] here.
Result string: 4.57
